- System: SK-BR-3
- ASSAY NOTES: normalised viability (% of control), CellTiter-Blue; higher = more viable cells (about 100 = DMSO control)
- MEASUREMENT PARAMETERS: 1000 nM; incubation time: 72 h
Doc: threshold 70% (exclusive). Items with normalised viability beneath it return Criterion met; others return Criterion not met.

Q: For O=C(NC[C@H](O)CO)c1ccncc1Nc1ccc(I)cc1F , is the recorded normalised viability below the cut-off of 70%?
Result: Criterion not met

Q: For CO[C@@H](C(=O)N1Cc2[nH]nc(NC(=O)c3ccc(N4CCN(C)CC4)cc3)c2C1)c1ccccc1 , is the recorded normalised viability below the cut-off of 70%?
Result: Criterion not met

Q: For C[C@]12C=CC(=O)C=C1CC[C@@H]1[C@@H]2[C@@H](O)C[C@@]2(C)[C@H]1CC[C@]2(O)C(=O)CO , is the recorded normalised viability below the cut-off of 70%?
Result: Criterion not met

Q: For C[C@]12O[C@H](C[C@]1(O)CO)n1c3ccccc3c3c4c(c5c6ccccc6n2c5c31)CNC4=O , is the recorded normalised viability below the cut-off of 70%?
Result: Criterion met

Q: For COc1cc(CCc2cc(NC(=O)c3ccc(N4CC(C)NC(C)C4)cc3)n[nH]2)cc(OC)c1 (stereo not given) , is the recorded normalised viability below the cut-off of 70%?
Result: Criterion not met

====

- Test system: BT-549
- ASSAY NOTES: normalised viability (% of control), CellTiter-Blue; higher = more viable cells (about 100 = DMSO control)
- MEASUREMENT PARAMETERS: 100 nM; incubation time: 72 h
Please provide measured normalised viability for the entries that follow.
Please give a number only; it is taken to be in %.

Q: What reported normalised viability corresponds to CO[C@@H](C(=O)N1Cc2[nH]nc(NC(=O)c3ccc(N4CCN(C)CC4)cc3)c2C1)c1ccccc1 on BT-549?
Result: 102

Q: What reported normalised viability corresponds to O=S(=O)(c1cccc2cnccc12)N1CCCNCC1 on BT-549?
Result: 95.6

Q: What reported normalised viability corresponds to COc1ccc(-c2cc3c(C)nc(N)nc3n([C@H]3CC[C@H](OCCO)CC3)c2=O)cn1 on BT-549?
Result: 66.9

Q: What reported normalised viability corresponds to O=C(Nc1c[nH]nc1-c1nc2ccc(CN3CCOCC3)cc2[nH]1)NC1CC1 on BT-549?
Result: 86

====

- Tested on: CAL-51
- ASSAY NOTES: normalised response (% of control), CellTiter-Glo; higher = more viable cells (100 = DMSO, 0 = benzethonium chloride kill control)
- MEASUREMENT PARAMETERS: incubation time: 72 h
ASSAY ENDPOINT: normalised response (%)
Please give a number only; it is taken to be in %.

Q: # normalised response lookup, item CO[C@@H](C(=O)N1Cc2[nH]nc(NC(=O)c3ccc(N4CCN(C)CC4)cc3)c2C1)c1ccccc1 [Danusertib] (10000 nM)
Result: 31.1

Q: # normalised response lookup, item Cc1ccc(Nc2nccc(N(C)c3ccc4c(C)n(C)nc4c3)n2)cc1S(N)(=O)=O [Pazopanib] (10000 nM)
Result: 67.5

Q: # normalised response lookup, item COc1nc(N)nc2c1ncn2[C@@H]1O[C@H](CO)[C@@H](O)[C@@H]1O [Nelarabine] (10000 nM)
Result: 143

Q: # normalised response lookup, item Cc1nc(Nc2ncc(C(=O)Nc3c(C)cccc3Cl)s2)cc(N2CCN(CCO)CC2)n1 [Dasatinib] (1000 nM)
Result: 47.9

Q: # normalised response lookup, item Cc1cccc(-c2nn3c(c2-c2ccnc4ccc(C(N)=O)cc24)CCC3)n1 [Galunisertib] (1000 nM)
Result: 91.8

Q: # normalised response lookup, item c1cc(CN2CCCNCCNCCCNCC2)ccc1CN1CCCNCCNCCCNCC1 [Plerixafor] (10000 nM)
Result: 124

Q: # normalised response lookup, item CCN(CC)CCNC(=O)c1c(C)[nH]c(/C=C2\C(=O)Nc3ccc(F)cc32)c1C [Sunitinib] (1000 nM)
Result: 109

Q: # normalised response lookup, item CCC/C=C/C=C/C(=O)O[C@H]1/C(=C/C(=O)OC)C[C@H]2C[C@H]([C@@H](C)O)OC(=O)C[C@H](O)C[C@@H]3C[C@H](OC(C)=O)C(C)(C)[C@](O)(C[C@@H]4C/C(=C/C(=O)OC)C[C@H](/C=C/C(C)(C)[C@]1(O)O2)O4)O3 [Bryostatin 1] (100 nM)
Result: 96.5

Q: # normalised response lookup, item CC[C@@]1(O)C(=O)OCc2c1cc1n(c2=O)Cc2cc3c(CN(C)C)c(O)ccc3nc2-1 [Topotecan] (10000 nM)
Result: 15.2

Q: # normalised response lookup, item O=C(CCBr)N1CCN(C(=O)CCBr)CC1 [Pipobroman] (10000 nM)
Result: 86.5

Q: # normalised response lookup, item Cc1c(CN2CCN(C(=O)[C@H](C)O)CC2)sc2c(N3CCOCC3)nc(-c3cnc(N)nc3)nc12 [GDC-0980] (10000 nM)
Result: 8.48
